# measurementDescription: Tested for the ability to inhibit maximum contraction obtained in the presence of [b-Ala8] NKA(4-10) in isolated guinea pig trachea
# Response annotations

givenSmiles | Response, %
CN(C[C@H](CCN1CCC(O)(c2ccccc2)CC1)c1ccc(Cl)c(Cl)c1)C(=O)c1cccc(NC(=O)CBr)c1 | 98
CC(=O)Nc1cccc(C(=O)N(C)C[C@H](CCN2CCC(O)(c3ccccc3)CC2)c2ccc(Cl)c(Cl)c2)c1 | 96.3
CN(C[C@H](CCN1CCC(O)(c2ccccc2)CC1)c1ccc(Cl)c(Cl)c1)C(=O)c1ccccc1[N+](=O)[O-] | 92.7
CN(C[C@H](CCN1CCC(O)(c2ccccc2)CC1)c1ccc(Cl)c(Cl)c1)C(=O)c1cccc(N=C=S)c1 | 95.8
CN(C[C@H](CCN1CCC(O)(c2ccccc2)CC1)c1ccc(Cl)c(Cl)c1)C(=O)c1ccccc1N=C=S | 95.5
CN(C[C@H](CCN1CCC(O)(c2ccccc2)CC1)c1ccc(Cl)c(Cl)c1)C(=O)c1ccc(N=C=S)cc1 | 97.6
